Molecular target: T1, TAT10772 polypeptide (human)
T1 construct: Cell-surface TAT10772 on engineered PC3 cells (PC3/A5.3B2), OVCAR-3, OVCA-432, SK-OV-3 cells and tumor tissue; also called TAT10772 target polypeptide
Assay: ELISA on OVCAR-3 cells, IgG
ASSAY_METRIC: Kd (nM)
Numbers only, in nM.

Past entries and their recorded results:
BINDER	Kd [nM]
3A5v3 (SEQ ID NO: 200) (antibody, V domains shown, Humanized IgG) VH: EVQLVESGGGLVQPGGSLRLSCAASGYSITNDYAWNWVRQAPGKGLEWVGYINYSGYTTYNPSLKSRFTISRDTSKNTFYLQMNSLRAEDTAVYYCARWASGLSYWGQGTLVTVSS VL: DIQMTQSPSSLSASVGDRVTITCKASDLIHNWLAWYQQKPGKAPKLLIYGATSLETGVPSRFSGSGSGTDFTLTISSLQPEDFATYYCQQYWTTPFTFGQGTKVEIKR	0.2
3A5.F-graft (SEQ ID NO: 13), IgG (antibody, V domains shown, IgG) VH: EVQLVESGGGLVQPGGSLRLSCAASGYSITNDYAWNWVRQAPGKGLEWVGYINYSGYTTYNPSLKSRFTISRDNSKNTFYLQMNSLRAEDTAVYYCARWDGGLTYWGQGTLVTVSS VL: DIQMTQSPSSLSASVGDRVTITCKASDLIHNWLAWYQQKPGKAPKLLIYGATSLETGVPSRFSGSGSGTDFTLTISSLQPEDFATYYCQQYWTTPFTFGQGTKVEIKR	0.6
3A5v7 (SEQ ID NO: 204) (antibody, V domains shown, Humanized IgG) VH: EVQLVESGGGLVQPGGSLRLSCAASGYSITNDYAWNWVRQAPGKGLEWVGYINYSGYTTYNPSLKSRFTISRDTSKNTLYLQMNSLRAEDTAVYYCARWKSGLDSWGQGTLVTVSS VL: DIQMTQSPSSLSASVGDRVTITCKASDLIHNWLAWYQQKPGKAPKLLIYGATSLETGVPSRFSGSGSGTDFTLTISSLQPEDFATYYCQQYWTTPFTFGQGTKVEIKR	0.8

Please state, for each entry, its recorded Kd.
1. 3A5v4 (SEQ ID NO: 201) (antibody, V domains shown, Humanized IgG) VH: EVQLVESGGGLVQPGGSLRLSCAASGYSITNDYAWNWVRQAPGKGLEWVGYINYSGYTTYNPSLKSRFTISRDTSKNTLYLQMNSLRAEDTAVYYCARWTSGLDYWGQGTLVTVSS VL: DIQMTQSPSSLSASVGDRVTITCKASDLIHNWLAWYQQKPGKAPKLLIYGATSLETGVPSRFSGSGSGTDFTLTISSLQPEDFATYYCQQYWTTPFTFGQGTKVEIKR
2. 3A5v2 (SEQ ID NO: 199) (antibody, V domains shown, Humanized IgG) VH: EVQLVESGGGLVQPGGSLRLSCAASGYSITNDYAWNWVRQAPGKGLEWVGYINYSGYTTYNPSLKSRFTISRDTSKNTFYLQMNSLRAEDTAVYYCARWASGLSHWGQGTLVTVSS VL: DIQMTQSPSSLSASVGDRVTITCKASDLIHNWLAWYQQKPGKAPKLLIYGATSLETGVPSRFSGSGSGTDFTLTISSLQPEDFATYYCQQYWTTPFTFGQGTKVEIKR
3. 3A5v6 (SEQ ID NO: 203) (antibody, V domains shown, Humanized IgG) VH: EVQLVESGGGLVQPGGSLRLSCAASGYSITNDYAWNWVRQAPGKGLEWVGYINYSGYTTYNPSLKSRFTISRDTSKNTFYLQMNSLRAEDTAVYYCARWDSGLTYWGQGTLVTVSS VL: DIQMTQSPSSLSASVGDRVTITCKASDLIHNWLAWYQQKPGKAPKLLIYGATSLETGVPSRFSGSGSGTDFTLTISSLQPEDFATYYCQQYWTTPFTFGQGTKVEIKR
4. 3A5v5 (SEQ ID NO: 202) (antibody, V domains shown, Humanized IgG) VH: EVQLVESGGGLVQPGGSLRLSCAASGYSITNDYAWNWVRQAPGKGLEWVGYINYSGYTTYNPSLKSRFTISRDTSKNTFYLQMNSLRAEDTAVYYCARWDAGLTYWGQGTLVTVSS VL: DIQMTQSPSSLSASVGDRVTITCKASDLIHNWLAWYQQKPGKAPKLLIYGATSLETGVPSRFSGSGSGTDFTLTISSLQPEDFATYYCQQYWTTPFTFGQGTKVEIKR
5. 3A5v1 (SEQ ID NO: 198) (antibody, V domains shown, Humanized IgG) VH: EVQLVESGGGLVQPGGSLRLSCAASGYSITNDYAWNWVRQAPGKGLEWVGYINYSGYTTYNPSLKSRFTISRDTSKNTLYLQMNSLRAEDTAVYYCARWASGLDYWGQGTLVTVSS VL: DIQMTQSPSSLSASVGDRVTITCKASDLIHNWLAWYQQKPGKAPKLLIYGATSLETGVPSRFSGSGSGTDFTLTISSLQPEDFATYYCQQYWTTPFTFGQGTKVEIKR
6. 3A5.L-graft (SEQ ID NO: 12), IgG (antibody, V domains shown, IgG) VH: EVQLVESGGGLVQPGGSLRLSCAASGYSITNDYAWNWVRQAPGKGLEWVGYINYSGYTTYNPSLKSRFTISRDNSKNTLYLQMNSLRAEDTAVYYCARWDGGLTYWGQGTLVTVSS VL: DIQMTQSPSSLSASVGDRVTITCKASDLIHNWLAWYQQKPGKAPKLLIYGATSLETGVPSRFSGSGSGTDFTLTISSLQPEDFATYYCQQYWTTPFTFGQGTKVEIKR
7. 3A5v8 (SEQ ID NO: 205) (antibody, V domains shown, Humanized IgG) VH: EVQLVESGGGLVQPGGSLRLSCAASGYSITNDYAWNWVRQAPGKGLEWVGYINYSGYTTYNPSLKSRFTISRDTSKNTLYLQMNSLRAEDTAVYYCARWTSGLDSWGQGTLVTVSS VL: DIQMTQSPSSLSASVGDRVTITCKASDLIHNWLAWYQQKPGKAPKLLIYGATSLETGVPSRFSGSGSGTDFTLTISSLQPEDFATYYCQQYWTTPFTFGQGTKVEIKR

Result:
1: 0.8; 2: 0.7; 3: 0.6; 4: 0.6; 5: 0.5; 6: 7.1; 7: 0.5

Problem: What measured Kd goes with 3A5 chimera (mu3A5-H; SEQ ID NO: 11) (antibody, V domains shown, IgG; also called chimeric 3A5; chimeric antibody) VH: DVQLQESGPGLVNPSQSLSLTCTVTGYSITNDYAWNWIRQFPGNKLEWMGYINYSGYTTYNPSLKSRISITRDTSKNQFFLHLNSVTTEDTATYYCARWDGGLTYWGQGTLVTVSA VL: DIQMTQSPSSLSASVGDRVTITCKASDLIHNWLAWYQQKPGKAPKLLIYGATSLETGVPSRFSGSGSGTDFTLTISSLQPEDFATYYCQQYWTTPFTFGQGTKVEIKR ?
Result: 0.3
